- protocol-text: Pharmacokinetics after single intravenous drip infusion, plasma LC-MS/MS
- Format: in vivo, Philippine macaques
- measurement-context: male, cynomolgus monkey, plasma, iv, 0.42 mg/kg, AST-3424-D6 single intravenous infusion, Table 15 heading 0.58 mg/kg (text: 0.42 mg/kg); plasma; read-out: Vz, Mean
result-type: Vd (L/kg)
# value in L/kg; strip the unit string

// Vd lookup, key: [2H]C([2H])([2H])N(C(=O)c1cccc(Oc2cc([C@H](C)OP(=O)(N3CC3)N3CC3)ccc2[N+](=O)[O-])c1)C([2H])([2H])[2H]
0.235

---

- protocol-text: Pharmacokinetics after single intravenous drip infusion, plasma LC-MS/MS
- Format: in vivo, Philippine macaques
- measurement-context: male, Philippine macaque, plasma, intravenous, 0.58 mg/kg, AST-3424 intravenous drip infusion 0.58 mg/kg; 0.5 hr; read-out: Plasma-drug concentration, mean
result-type: concentration at 0.5 h (ng/mL)
# value in ng/mL; strip the unit string

// concentration at 0.5 h lookup, key: C[C@H](OP(=O)(N1CC1)N1CC1)c1ccc([N+](=O)[O-])c(Oc2cccc(C(=O)N(C)C)c2)c1 [AST-3424]
695

---

- protocol-text: Pharmacokinetics after single intravenous drip infusion, plasma LC-MS/MS
- Assay type: in vivo, Philippine macaques
- measurement-context: male, Philippine macaque, cynomolgus monkey, plasma, iv, 0.42 mg/kg, AST-3424-D6 single intravenous infusion, Table 15 heading 0.58 mg/kg (text: 0.42 mg/kg); plasma; read-out: MRT(0−∞), Mean
result-type: MRT inf (min)
# value in min; strip the unit string

// MRT inf lookup, key: [2H]C([2H])([2H])N(C(=O)c1cccc(Oc2cc([C@H](C)OP(=O)(N3CC3)N3CC3)ccc2[N+](=O)[O-])c1)C([2H])([2H])[2H]
9

---

- protocol-text: Pharmacokinetics after single intravenous drip infusion, plasma LC-MS/MS
- Assay type: in vivo, Philippine macaques
- measurement-context: male, Philippine macaque, cynomolgus monkey, plasma, iv, 0.42 mg/kg, AST-3424-D6 single intravenous infusion, Table 15 heading 0.58 mg/kg (text: 0.42 mg/kg); plasma; read-out: Cmax, Mean
result-type: Cmax (ng/mL)
# value in ng/mL; strip the unit string

// Cmax lookup, key: [2H]C([2H])([2H])N(C(=O)c1cccc(Oc2cc([C@H](C)OP(=O)(N3CC3)N3CC3)ccc2[N+](=O)[O-])c1)C([2H])([2H])[2H]
522

---

- protocol-text: Pharmacokinetics after single intravenous drip infusion, plasma LC-MS/MS
- Type: in vivo, Philippine macaques
- measurement-context: male, Philippine macaque, plasma, intravenous, 0.42 mg/kg, AST-3424-D6 intravenous drip infusion 0.42 mg/kg; 0.25 hr; read-out: Plasma-drug concentration, mean
result-type: concentration at 0.25 hr
Report the figure along with its unit, number first.

// concentration at 0.25 hr lookup, key: [2H]C([2H])([2H])N(C(=O)c1cccc(Oc2cc([C@H](C)OP(=O)(N3CC3)N3CC3)ccc2[N+](=O)[O-])c1)C([2H])([2H])[2H]
505 ng/mL

---

- protocol-text: Solubility study of AST-3424 (shaking at 25° C., HPLC content)
- Assay type: physicochemical
- measurement-context: phosphate buffer of pH 7.4, 25 °C, pH 7.4, aqueous buffer, thermodynamic from solid, pH 7.4 Phosphate buffer, 1 h, read-out: Content (solubility test)
result-type: solubility at 1 h (mg/mL)
# value in mg/mL; strip the unit string

// solubility at 1 h lookup, key: C[C@H](OP(=O)(N1CC1)N1CC1)c1ccc([N+](=O)[O-])c(Oc2cccc(C(=O)N(C)C)c2)c1
23.7
